Where do these numbers come from? They come from patent US20250177533A1.

Entries and their Dark toxicity μM (IC10) values follow.
- Tested on: Human ovarian cancer cell line SKOV3
- Measurement setup: 24 h
Quantity name: Dark toxicity μM (IC10) (µM)

>>> assay_value("CCC1=C(C)c2cc3[nH]c(cc4nc(c(C)c5cc(C)c(cc1n2)[nH]5)[C@@H](CCC(=O)OC)[C@@H]4C)c(C)c3C(C)OCCOCC[P+](c1ccccc1)(c1ccccc1)c1ccccc1 (some centres unmarked) [Compound 23]")
3.086
>>> assay_value("CCC1=C(C)c2cc3[nH]c(cc4nc(c(C)c5cc(C)c(cc1n2)[nH]5)[C@@H](CCCO)[C@@H]4C)c(C)c3CO[C@@H]1O[C@H](CO)[C@@H](O)[C@H](O)[C@H]1O [Compound 35]")
1.651
>>> assay_value("CCC1=C(C)c2cc3[nH]c(cc4nc(c(C)c5cc(C)c(cc1n2)[nH]5)[C@@H](CCC(=O)N(C)C[C@H](O)[C@@H](O)[C@H](O)[C@H](O)CO)[C@@H]4C)c(C)c3CO[C@@H]1O[C@H](CO)[C@@H](O)[C@H](O)[C@H]1O [Compound 10]")
4.732
>>> assay_value("CCC1=C(C)c2cc3[nH]c(cc4nc(c(C)c5cc(C)c(cc1n2)[nH]5)[C@@H](CCC(=O)N(CCOCCOCCOC)CCOCCOCCOC)[C@@H]4C)c(C)c3CO [Compound 13]")
60.750
>>> assay_value("CCC1=C(C)c2cc3[nH]c(cc4nc(c(C)c5cc(C)c(cc1n2)[nH]5)[C@@H](CCC(=O)N(C)CCOCCOCCOCCOCCOCCOC)[C@@H]4C)c(C)c3CO[C@@H]1O[C@H](CO)[C@@H](O)[C@H](O)[C@H]1O [Compound 25]")
0.279
